System tested: T1, Hrq1 (Saccharomyces cerevisiae, UniProt Q05549 1-1077)
T1 sequence: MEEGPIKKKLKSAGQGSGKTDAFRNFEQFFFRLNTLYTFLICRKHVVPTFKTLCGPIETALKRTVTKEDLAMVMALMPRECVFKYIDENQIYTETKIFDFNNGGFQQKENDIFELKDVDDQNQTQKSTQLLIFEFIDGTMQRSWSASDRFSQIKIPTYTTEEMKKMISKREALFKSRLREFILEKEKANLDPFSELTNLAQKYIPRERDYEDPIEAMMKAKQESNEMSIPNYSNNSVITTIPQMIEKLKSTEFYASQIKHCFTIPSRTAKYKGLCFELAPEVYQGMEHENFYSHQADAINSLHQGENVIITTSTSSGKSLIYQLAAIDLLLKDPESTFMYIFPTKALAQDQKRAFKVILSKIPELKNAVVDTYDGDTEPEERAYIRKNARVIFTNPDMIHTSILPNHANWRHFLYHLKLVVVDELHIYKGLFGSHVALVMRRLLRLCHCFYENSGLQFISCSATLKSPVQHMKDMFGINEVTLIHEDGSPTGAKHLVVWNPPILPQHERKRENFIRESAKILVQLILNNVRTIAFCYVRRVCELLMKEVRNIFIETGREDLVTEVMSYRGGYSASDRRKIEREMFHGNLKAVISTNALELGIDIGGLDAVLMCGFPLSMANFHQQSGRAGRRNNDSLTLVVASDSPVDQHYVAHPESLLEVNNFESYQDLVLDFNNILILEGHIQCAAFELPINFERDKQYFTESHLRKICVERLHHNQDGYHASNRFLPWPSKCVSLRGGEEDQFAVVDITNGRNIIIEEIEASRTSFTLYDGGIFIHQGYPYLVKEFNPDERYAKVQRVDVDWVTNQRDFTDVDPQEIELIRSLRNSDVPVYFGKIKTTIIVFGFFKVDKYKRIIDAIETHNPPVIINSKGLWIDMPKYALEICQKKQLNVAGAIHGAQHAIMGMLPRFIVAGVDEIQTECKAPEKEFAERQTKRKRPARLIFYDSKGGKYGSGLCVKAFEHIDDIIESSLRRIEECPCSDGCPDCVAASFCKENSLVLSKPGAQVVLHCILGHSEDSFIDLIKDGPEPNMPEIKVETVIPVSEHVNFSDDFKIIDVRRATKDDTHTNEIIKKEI
Test summary: EMSA
Would you kindly list Kd for each of these binders?
Answers are plain numbers, in nM.

Example cases with answers are listed next.
Binder	Number
3' tail (dsDNA) DNA 1: GAACGCTATGTGAGTGACACCAACAGGTGAGTCAACGTGTTGCCA DNA 2: GTGTCACTCACATAGCGTTC	141
D-loop (structured_DNA) DNA 1: GGGTGAACCTGCAGGTGGGCGGCTGCTCATCGTAGGTTAGTGGTAGAATTCGGCAGCGTC DNA 2: GACGCTGCCGAATTCTACCATGCCTTGCTAGGACATCTTTGCCCACCTGCAGGTTCACCC DNA 3: TAAGAGCAAGATGTTCTATAAAAGATGTCCTAGCAAGGCA	9.9
Bubble (dsDNA) DNA 1: GGTGAACCTGCAGGTGGGCGGCTGCTCATCGTAGGTTAGTTGGTAGAATTCGGCAGCGTC DNA 2: GACGCTGCCGAATTCTAGGTTGATTGGATGCTACTCGTCGGCGCCACCTGCAGGTTCACC	36.1

Next up:
Prompt: Field request: Kd | item: Human Tel Fork (Poly(TTAGGG) Fork) (dsDNA) DNA 1: TTAGGGTTAGGGTTAGGGTTAGGGTGTGTCACTCACATAGCGTTC DNA 2: GAACGCTATGTGAGTGACACTTAGGGTTAGGGTTAGGGTTAGGGT
Response: 15.7
